B1: KRT71 (parent)
chain: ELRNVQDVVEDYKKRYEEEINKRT

# Variants of: B1
# Assay procedure: protein stability index of a GFP-peptide fusion (GPS, HEK-293T) (PSI 1-6); higher = more stable;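 also: lentivirally expressed fusions sorted by FACS into six bins by GFP to DsRed ratio, PSI derived from sequencing read proportions per bin multiplied by bin number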
# Test parameters: c terminus: a fixed tail appended
Readout type: protein stability index
// no unit string in output, number only

{"Chain": "ELRNYQDVVEDYKKRYEEEINKRT", "protein stability index": 3.64}
{"Chain": "ELRNVQDVVEDYGKRYEEEINKRT", "protein stability index": 3.93}
{"Chain": "ELRNVQDVVEDYKKCYEEEINKRT", "protein stability index": 4.23}
{"Chain": "ELRNVIDVVEDYKKRYEEEINKRT", "protein stability index": 2.54}
{"Chain": "ELRNVKDVVEDYKKRYEEEINKRT", "protein stability index": 3.75}
{"Chain": "ELRNVPDVVEDYKKRYEEEINKRT", "protein stability index": 4.41}

Prompt: Find the recorded protein stability index belonging to ELRNVQDVVESYKKRYEEEINKRT and report it.
Completion: 3.69

Prompt: Find the recorded protein stability index belonging to ELRNVQNVVEDYKKRYEEEINKRT and report it.
Completion: 3.36

meta.source: the supplement of paper PMC10567573
